Quick reference for solubility kinetic among some molecules
# Conditions Used: buffer; pH 7.4; 200.0 µM

- Molecule: "Cc1ccc(C(=O)Nc2ncc([N+](=O)[O-])s2)cc1"
  Limit Sign: "="
  solubility kinetic (µg/mL): 27
- Molecule: "CCOc1ccc2[nH]c3c(=O)n(CCC4=CCCCC4)cnc3c2c1"
  Limit Sign: "="
  solubility kinetic (µg/mL): 10.7
- Molecule: "Cc1cc(C)c(OCCNCc2ccccc2)c(C)c1.O=C(O)C(=O)O"
  Limit Sign: "="
  solubility kinetic (µg/mL): 42.5
- Molecule: "O=C(Nc1cccc(O)c1)c1cccc(S(=O)(=O)Nc2cccc(O)c2)c1"
  Limit Sign: ">"
  solubility kinetic (µg/mL): 57.7
- Molecule: "COC(=O)Cn1cc(C=C2C(=O)N(C)C(=O)N(C)C2=O)c2ccccc21"
  Limit Sign: "="
  solubility kinetic (µg/mL): 3.8
- Molecule: "Nc1nc(SCCO)[nH]c(=O)c1NC(=O)c1ccco1"
  Limit Sign: ">"
  solubility kinetic (µg/mL): 44.4
- Molecule: "COc1cc(NC(=S)NCCO)c(OC)cc1Cl"
  Limit Sign: ">"
  solubility kinetic (µg/mL): 43.6
- Molecule: "CN1CC(C(=O)c2ccc(F)cc2)C(c2c(F)cccc2Cl)C1 (stereo unspecified)"
  Limit Sign: "="
  solubility kinetic (µg/mL): 40.9
- Molecule: "Br.Clc1ccc(CNCC2CCCO2)cc1 (stereo unspecified)"
  Limit Sign: ">"
  solubility kinetic (µg/mL): 46
- Molecule: "CCc1nnc(NC(=O)CSc2nnc3nc(C)cc(C)n23)s1"
  Limit Sign: ">"
  solubility kinetic (µg/mL): 52.4
- Molecule: "Cc1cc(C(=O)COC(=O)CC(NC(N)=O)c2ccc(Cl)cc2)c(C)n1C (stereo unspecified)"
  Limit Sign: "="
  solubility kinetic (µg/mL): 29.2
